Below, each entry is listed alongside its reported TGI.
# System: CCRF-CEM leukemia
# Experimental Details: NCI tumour cell line growth inhibition, 48 h

Take a look at these entries with their results.
>>> df
                                   compound       study_system  reported_endpoint  reported_result
0  O=C1C=CC2(CCCCCCC2=O)CC1 (stereo not given)  CCRF-CEM leukemia                TGI         > 100 µM
1  O=C(N/N=C(/COc1ccccc1)N=Cc1ccncc1)c1ccncc1  CCRF-CEM leukemia                TGI         > 100 µM
2            OCC#CCOCC#Cc1ccccc1C#CCOCC#CCO  CCRF-CEM leukemia                TGI          57.1 µM
3  O=C(NCCCCCCCCCCCCNC(=O)c1cnc2ccccc2n1)c1cnc2ccccc2n1  CCRF-CEM leukemia                TGI         > 100 µM
4                         Cc1noc2cccc(O)c12  CCRF-CEM leukemia                TGI         > 100 µM

Exercise: Identify measured TGI obtained with CCRF-CEM leukemia for O=c1oc2ccc([N+](=O)[O-])cc2nc1/C=C(\O)c1ccccc1 .
Key: > 100 µM

Exercise: Using CCRF-CEM leukemia as the test system, report measured TGI of C[C@@H]1CC[C@H]2[C@@H](C)C(O)O[C@@H]3O[C@]4(C)CC[C@@H]1[C@]32OO4 (stereo not given in full) .
Key: 35 µM

Exercise: Give CCRF-CEM leukemia TGI for the following compound: Cc1ccc(S(=O)(=O)N(CC(O)COc2ccccc2)c2c(F)c(F)cc(F)c2F)cc1 (stereo not given)
Key: 93.6 µM

Exercise: Identify measured TGI obtained with CCRF-CEM leukemia for N#CCCN(CCC#N)c1ccc(/C=C(/NC(=O)c2cc([N+](=O)[O-])ccc2Cl)C(=O)N=[N+]=[N-])cc1 .
Key: > 100 µM

Exercise: Under CCRF-CEM leukemia: report TGI of CNC(=O)c1cc(Oc2ccc3nc(NC(=O)Nc4ccc(CN5CCOCC5)c(C(F)(F)F)c4)sc3c2)ccn1 .
Key: > 100 µM

Exercise: // fetch TGI for CCOC(=O)C1(CC(=O)O)CCCC1=O (stereo not given) ; system: CCRF-CEM leukemia
Key: > 100 µM

Exercise: Provide TGI, system CCRF-CEM leukemia, entry N#Cc1ncc(C(Cl)Cl)nc1Cl
Key: > 6.15 µM

Exercise: Lab note: record TGI of CC(C)C[C@H](CC(=O)O)C(=O)N[C@@H](Cc1c[nH]c2ccccc12)C(=O)N[C@@H](C)c1ccccc1 tested on CCRF-CEM leukemia.
Key: > 25 µM

Exercise: Answer with TGI of O=C1/C(=C/c2cccnc2)SC(=S)N1Cc1ccco1 measured for CCRF-CEM leukemia.
Key: 14.5 µM

Exercise: State TGI (CCRF-CEM leukemia) of CC1=C(C(=O)Nc2cccc(Cl)c2)C(c2ccccc2O)C(C(=O)Nc2cccc(Cl)c2)=C(C)N1 .
Key: 50.2 µM

Exercise: Look up and report measured TGI (CCRF-CEM leukemia) for the following compound: COc1ccccc1N1CCN(CCCCNC(=O)c2ccc([N+](=O)[O-])o2)CC1
Key: 58.2 µM

Provenance of the data: PubChem BioAssay (NCI)
